tested on: Human Nasal Mucosal Homogenate; test: Inhibitory effect on degradation of peptide proteinaceous drug in human nasal mucosal homogenate; assay type: biochemical; design: concentration or dose not given beside the values; conditions: degradation of glucagon (GLU), 37° C., HPLC
Where a name gives a salt, the structure may show the parent alone. Where a SMILES comes first, the peptide text is derived from it. [ ]: non-standard residue; d: D form. The star is where a group is joined. Sta = CC(C)C[C@H](N)[C@@H](O)CC(=O)O; Isovaleryl = CC(C)CC(=O)*
Kind request: treat 50% as inclusive, so Inhibitor (%) GLU at 50% or higher is rule met, anything lower is rule not met.

compound	answer.label
NCc1ccccc1	rule not met
NC[C@H]1CC[C@H](C(=O)Oc2ccc(CCC(=O)O)cc2)CC1 [Cetraxate hydrochloride]	rule met
NCc1ccc(C(=O)O)cc1	rule met
NC[C@H]1CC[C@H](C(=O)O)CC1	rule met
NCCCCCC(=O)O	rule not met
NCc1ccc(S(N)(=O)=O)cc1 [Mafenide acetate, 4-(aminomethyl) benzenesulfamine]	rule met
O=C(O)CNC(=O)C(CS)Cc1ccccc1 (stereo not shown)	rule not met
CCOC(=O)c1ccc(OC(=O)CCCCCNC(=N)N)cc1 [Gabexate]	rule met
CC(C)CC(=O)N[C@H](C(=O)N[C@H](C(=O)N[C@@H](CC(C)C)[C@@H](O)CC(=O)N[C@@H](C)C(=O)N[C@@H](CC(C)C)[C@@H](O)CC(=O)O)C(C)C)C(C)C [Pepstatin] (Isovaleryl-VV[Sta]A[Sta]-OH)	rule not met
Cc1ccc(S(=O)(=O)N[C@@H](Cc2ccccc2)C(=O)CCl)cc1	rule not met
CC(C)C[C@H](NC(=O)[C@@H](NC(=O)N[C@@H](Cc1ccccc1)C(=O)O)[C@@H]1CCN=C(N)N1)C(=O)N[C@H](C=O)Cc1ccccc1	rule not met
NC[C@H]1CC[C@H](C(=O)c2ccc(CCC(=O)O)cc2)CC1 [Rotraxate hydrochloride]	rule met

Where do these numbers come from? They come from patent US5578324A.
